# TARGET ENTITY: recombinant Top1 (Homo sapiens, UniProt P11387)
# Sequence (P11387 whole entry): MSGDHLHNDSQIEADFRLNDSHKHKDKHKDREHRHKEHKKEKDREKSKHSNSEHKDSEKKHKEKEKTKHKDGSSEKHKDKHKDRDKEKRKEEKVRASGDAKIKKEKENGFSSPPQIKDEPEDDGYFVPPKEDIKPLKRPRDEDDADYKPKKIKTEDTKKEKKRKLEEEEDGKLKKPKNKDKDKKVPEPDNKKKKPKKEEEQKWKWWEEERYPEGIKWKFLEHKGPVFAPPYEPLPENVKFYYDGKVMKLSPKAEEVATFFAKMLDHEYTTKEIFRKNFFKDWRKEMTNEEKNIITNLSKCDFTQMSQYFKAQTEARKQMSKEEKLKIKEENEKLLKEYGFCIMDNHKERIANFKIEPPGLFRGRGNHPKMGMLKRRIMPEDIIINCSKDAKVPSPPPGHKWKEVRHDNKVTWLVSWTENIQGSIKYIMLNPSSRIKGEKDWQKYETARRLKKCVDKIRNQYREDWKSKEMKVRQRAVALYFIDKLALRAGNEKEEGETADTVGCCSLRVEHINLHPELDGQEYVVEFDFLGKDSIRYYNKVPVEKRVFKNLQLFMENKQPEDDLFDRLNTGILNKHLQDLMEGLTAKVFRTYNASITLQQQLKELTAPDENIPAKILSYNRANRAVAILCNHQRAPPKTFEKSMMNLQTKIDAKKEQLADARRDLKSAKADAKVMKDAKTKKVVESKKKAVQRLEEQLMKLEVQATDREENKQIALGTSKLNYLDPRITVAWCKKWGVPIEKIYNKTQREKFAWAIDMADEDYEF
# TEST SUMMARY: Top1-mediated DNA cleavage assay
# Format: biochemical
# EXPERIMENTAL CONTEXT: semiquantitative scale relative to 1 μM MJ-III-65 (6) and 1 μM camptothecin (1)
MEASURED ENDPOINT: enzyme inhibitory activity Top1 (compound-induced DNA cleavage score)

COMPOUND	RESULT
COc1cnc2c(c1)C(=O)c1c-2n(CCCN2CCC(O)CC2)c(=O)c2cc(Cl)ccc12 [compound 16d]	++++
O=C1c2ccccc2-c2c1c1ccc(Cl)cc1c(=O)n2CCCn1ccnc1 [compound 8]	+++
COc1cnc2c(c1)C(=O)c1c-2n(CCCn2ccnc2)c(=O)c2cc(Cl)ccc12 [compound 16b]	+++
COc1cnc2c(c1)C(=O)c1c-2n(CCCN2CCNCC2)c(=O)c2cc(Cl)ccc12 [16e]	+
COc1cnc2c(c1)C(=O)c1c-2n(CCCN2CCOCC2)c(=O)c2cc(Cl)ccc12 [compound 16a]	+++

Challenge: Look at this compound and give its reported enzyme inhibitory activity Top1 (compound-induced DNA cleavage score). COc1cnc2c(c1)C(=O)c1c-2n(CCCNC2=NCCS2)c(=O)c2cc(Cl)ccc12 [compound 16c]
Response given: ++

Challenge: And the next one, COc1cnc2c(c1)C(=O)c1c-2n(CCCN2CCOCC2)c(=O)c2cc(F)ccc12 [17a] ?
Response given: +++

Provenance of the data: paper PMC8025945
